Target: STING (Homo sapiens, UniProt Q86WV6, G230A/H232R/R293Q/R71H)
Sequence (Q86WV6 whole entry R71H/G230A/H232R/R293Q): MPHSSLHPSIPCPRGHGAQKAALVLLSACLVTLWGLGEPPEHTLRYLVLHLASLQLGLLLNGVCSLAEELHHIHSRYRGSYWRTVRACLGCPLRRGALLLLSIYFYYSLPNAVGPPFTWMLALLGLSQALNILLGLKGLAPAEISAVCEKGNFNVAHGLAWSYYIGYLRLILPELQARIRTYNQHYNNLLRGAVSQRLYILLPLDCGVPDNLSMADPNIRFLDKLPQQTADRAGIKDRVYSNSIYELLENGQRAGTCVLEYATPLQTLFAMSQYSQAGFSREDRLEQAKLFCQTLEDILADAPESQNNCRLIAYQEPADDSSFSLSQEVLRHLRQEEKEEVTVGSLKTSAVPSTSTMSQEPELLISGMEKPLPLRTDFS
Assay: STING reporter assay (luciferase) in THP1-Dual KO-IFNAR2 cells stimulated with 2′3′cGAMP
Settings: 2′3′cGAMP 15 μM final, 24 h, luciferase reporter activity, read-out: Pharmaron, THP1_IFNAR2 STING 24 h Luci Normalized: GeoMean EC50
EC50 values, listed per item

Use the examples below as a reference point.
{"columns": ["COMPOUND", "PROPERTY MEASURED", "DATA VALUE"],
 "data": [
  ["O=C(Nc1c[nH]c2ccc(O[C@H]3C[C@H](c4ccc(C(F)(F)F)cc4)C3)cc12)C1C2COCC21 (stereo partly drawn)", "EC50", "0.2 to 1 µM"],
  ["Cc1oncc1C(=O)Nc1c[nH]c2ccc(OCC[C@@H]3C[C@@H]4CN(CC(F)(F)F)C[C@@H]4C3)cc12", "EC50", "5 to 100 µM"],
  ["O=C(Nc1c[nH]c2ccc(OCc3ccc(C(F)(F)F)cc3)cc12)c1cscn1", "EC50", "1 to 5 µM"],
  ["O=C(Nc1c[nH]c2ccc(OCc3ccc(C(F)(F)F)cc3)cc12)C1CC2(CC2)C1", "EC50", "0.2 to 1 µM"],
  ["O=C(Nc1c[nH]c2ccc(O[C@H]3C[C@@H](c4ccc(C(F)(F)F)cc4)C3)cc12)C1CC2(CCC2)C1", "EC50", "0.2 to 1 µM"]
]}

Lab note: next compound to report on.
Short answer please: EC50, STING (Homo sapiens, UniProt Q86WV6, G230A/H232R/R293Q/R71H), entry `O=C(Nc1c[nH]c2ccc(O[C@H]3C[C@@H](c4ccc(C(F)(F)F)nc4)C3)cc12)c1ccc(C(F)(F)F)cc1`
0.04 to 0.2 µM

====

A collection of compounds and their measured EC50
Target: STING (Homo sapiens, UniProt Q86WV6, G230A/H232R/R293Q/R71H)
Experiment: STING reporter assay (luciferase) in THP1-Dual KO-IFNAR2 cells stimulated with 2′3′cGAMP
Conditions: 2′3′cGAMP 15 μM final, 24 h, luciferase reporter activity, read-out: Pharmaron, THP1_IFNAR2 STING 24 h Luci Normalized: GeoMean EC50

// below: answered compounds
{"columns": ["COMPOUND", "TARGET OR TEST SYSTEM", "DATA VALUE"],
 "data": [
  ["Cn1ccnc1C(=O)Nc1c[nH]c2ccc(OCc3ccc(C(F)(F)F)cc3)cc12", "STING (Homo sapiens, UniProt Q86WV6, G230A/H232R/R293Q/R71H)", "200 to 1000 nM"],
  ["Cn1ccnc1C(=O)Nc1c[nH]c2ccc(CCOc3ccc(C(F)(F)F)cc3)cc12", "STING (Homo sapiens, UniProt Q86WV6, G230A/H232R/R293Q/R71H)", "40 to 200 nM"]
]}

May I ask what EC50 has been recorded for `O=C(Nc1c[nH]c2ccc(OCC[C@@H]3C[C@@H]4CN(CC(F)(F)F)C[C@@H]4C3)cc12)c1cncs1` ?
200 to 1000 nM

Entry under review: `O=C(Nc1c[nH]c2ccc(CCOc3ccc(C(F)(F)F)cc3)cc12)C1CC2(CC2)C1` . Reported EC50?
200 to 1000 nM

# query: EC50 of entry O=C(Nc1c[nH]c2ccc(OCC[C@@H]3C[C@@H]4CN(CC(F)(F)F)C[C@@H]4C3)cc12)C1CC12CCC2 (some centres unmarked)
200 to 1000 nM

What value of measured EC50 is listed for `Cn1cc(C(=O)Nc2c[nH]c3ccc(OCc4ccc(C(F)(F)F)cc4)cc23)nn1` ?
1000 to 5000 nM

Name the recorded EC50 for `Cn1cc(C(=O)Nc2c[nH]c3ccc(O[C@H]4C[C@@H](c5ccc(C(F)(F)F)nc5)C4)cc23)nn1` .
200 to 1000 nM

====

Biological target: STING (Homo sapiens, UniProt Q86WV6, G230A/H232R/R293Q/R71H)
Test: STING reporter assay (luciferase) in THP1-Dual KO-IFNAR2 cells stimulated with 2′3′cGAMP
Conditions: 2′3′cGAMP 15 μM final, 24 h, luciferase reporter activity, read-out: Pharmaron, THP1_IFNAR2 STING 24 h Luci Normalized: GeoMean EC50
Item-by-item account of EC50

{"columns": ["COMPOUND STRUCTURE STRING", "PROPERTY MEASURED", "DATA VALUE"],
 "data": [
  ["Cc1noc(C)c1C(=O)Nc1c[nH]c2ccc(O[C@H]3C[C@@H](c4ccc(C(F)(F)F)cc4)C3)cc12", "EC50", "0.04 to 0.2 µM"],
  ["O=C(Nc1c[nH]c2ccc(OCc3ccc(C(F)(F)F)cc3)cc12)c1ccccn1", "EC50", "5 to 100 µM"],
  ["O=C(Nc1c[nH]c2ccc(OCC[C@@H]3C[C@@H]4CN(CC(F)(F)F)C[C@@H]4C3)cc12)C12CC(C1)C2", "EC50", "0.2 to 1 µM"],
  ["O=C(Nc1c[nH]c2ccc(O[C@H]3C[C@H](c4ccc(C(F)(F)F)cc4)C3)cc12)c1ccncc1", "EC50", "0.2 to 1 µM"],
  ["Cn1cc(C(=O)Nc2c[nH]c3ccc(OCC[C@@H]4C[C@@H]5CN(CC(F)(F)F)C[C@@H]5C4)cc23)nn1", "EC50", "0.2 to 1 µM"]
]}

I have this compound here, `O=C(Nc1c[nH]c2ccc(O[C@H]3C[C@@H](c4ccc(C(F)(F)F)cc4)C3)cc12)C12CC(F)(C1)C2` , and I need its recorded EC50.
0.2 to 1 µM

Which EC50 reading was recorded for the compound `N#CC12CC(C(=O)Nc3c[nH]c4ccc(COCc5ccc(C(F)(F)F)cc5)cc34)(C1)C2` ?
0.2 to 1 µM

====

Biological target: STING (Homo sapiens, UniProt Q86WV6, G230A/H232R/R293Q/R71H)
Experiment: STING reporter assay (luciferase) in THP1-Dual KO-IFNAR2 cells stimulated with 2′3′cGAMP
Details: 2′3′cGAMP 15 μM final, 24 h, luciferase reporter activity, read-out: Pharmaron, THP1_IFNAR2 STING 24 h Luci Normalized: GeoMean EC50
pEC50: −log10 of the molar value.
PROPERTY MEASURED: pEC50

{"columns": ["MOLECULE", "pEC50"],
 "data": [
  ["O=C(CC1CC1)Nc1c[nH]c2ccc(OCc3ccc(C(F)(F)F)cc3)cc12", "6.00 to 6.70"],
  ["O=C(Nc1c[nH]c2ccc(O[C@H]3C[C@@H](c4ccc(C(F)(F)F)cc4)C3)cc12)c1ccccn1", "5.30 to 6.00"],
  ["Cc1oncc1C(=O)Nc1c[nH]c2ccc(O[C@H]3C[C@@H](c4ccc(C(F)(F)F)cc4)C3)cc12", "4.00 to 5.30"],
  ["O=C(Nc1c[nH]c2ccc(OCc3ccc(C(F)(F)F)cc3)cc12)C1CC12CC2 (stereo not shown)", "6.00 to 6.70"]
]}

// pEC50 lookup, key: `O=C(Nc1c[nH]c2ccc(OCc3ccc(C(F)(F)F)cc3)cc12)c1cncs1`
6.00 to 6.70

May I ask what pEC50 has been recorded for `Cc1noc(C)c1C(=O)Nc1c[nH]c2ccc(O[C@H]3C[C@H](c4ccc(C(F)(F)F)cc4)C3)cc12` ?
6.00 to 6.70

I would be grateful if you could share the reported pEC50 for `O=C(Nc1c[nH]c2ccc(O[C@H]3C[C@H](c4ccc(C(F)(F)F)cc4)C3)cc12)c1ncccc1F` .
6.70 to 7.40

====

Target: STING (Homo sapiens, UniProt Q86WV6, G230A/H232R/R293Q/R71H)
Assay: STING reporter assay (luciferase) in THP1-Dual KO-IFNAR2 cells stimulated with 2′3′cGAMP
Conditions: 2′3′cGAMP 15 μM final, 24 h, luciferase reporter activity, read-out: Pharmaron, THP1_IFNAR2 STING 24 h Luci Normalized: GeoMean EC50
EC50 by entry:

Worked cases, EC50 given:
{"columns": ["COMPOUND", "TARGET OR TEST SYSTEM", "DATA VALUE"],
 "data": [
  ["O=C(Nc1c[nH]c2ccc(COCc3ccc(C(F)(F)F)cc3)cc12)C12CC(F)(C1)C2", "STING (Homo sapiens, UniProt Q86WV6, G230A/H232R/R293Q/R71H)", "200 to 1000 nM"],
  ["CC12CC(C(=O)Nc3c[nH]c4ccc(O[C@H]5C[C@@H](c6ccc(C(F)(F)F)cc6)C5)cc34)(C1)C2", "STING (Homo sapiens, UniProt Q86WV6, G230A/H232R/R293Q/R71H)", "200 to 1000 nM"],
  ["Cn1nccc1C(=O)Nc1c[nH]c2ccc(OCC[C@@H]3C[C@@H]4CN(CC(F)(F)F)C[C@@H]4C3)cc12", "STING (Homo sapiens, UniProt Q86WV6, G230A/H232R/R293Q/R71H)", "200 to 1000 nM"],
  ["O=C(Nc1c[nH]c2ccc(OCc3ccc(C(F)(F)F)cc3)cc12)C1CC12CCC2 (stereo not shown)", "STING (Homo sapiens, UniProt Q86WV6, G230A/H232R/R293Q/R71H)", "40 to 200 nM"],
  ["O=C(Nc1c[nH]c2ccc(CCOc3ccc(C(F)(F)F)cc3)cc12)c1cncs1", "STING (Homo sapiens, UniProt Q86WV6, G230A/H232R/R293Q/R71H)", "200 to 1000 nM"],
  ["Cc1oncc1C(=O)Nc1c[nH]c2ccc(CCOc3ccc(C(F)(F)F)cc3)cc12", "STING (Homo sapiens, UniProt Q86WV6, G230A/H232R/R293Q/R71H)", "5000 to 100000 nM"]
]}

Consider now this further compound.
Look at this compound and give its reported EC50. `Cn1nccc1C(=O)Nc1c[nH]c2ccc(O[C@H]3C[C@H](c4ccc(C(F)(F)F)cc4)C3)cc12`
200 to 1000 nM
